Assay: Pharmacokinetic Test in Rats (Inhalation Administration)
Settings: rat, in vivo, inhaled or intranasal, male SD rats, single dose 0.03 mg/kg, lung tissue
Friendly reminder: Cmax below 3 µg/mL is Y, at or above is N.

| Molecule | Assigned category |
| --- | --- |
| CC(C)(Cc1csc([C@]2(C)C(=O)Nc3nc(-c4nc(CCC(F)(F)C(F)(F)F)n5cc(F)ccc45)nc(N)c32)n1)C(=O)O [Compound 45-1] | Y |
| CC(C)(Cc1csc([C@]2(C)C(=O)Nc3nc(-n4c(=O)n(CCC(F)(F)C(F)(F)F)c5cc(F)ccc54)nc(N)c32)n1)C(=O)O [Compound 31-1] | Y |
| CC(C)(Cc1csc(C2(C)C(=O)Nc3nc(-n4nc(CCC(F)(F)C(F)(F)F)c5ncc(F)cc54)nc(N)c32)n1)C(=O)O (single isomer, unassigned) [Compound 37-1] | Y |
| CC(C)(Cc1csc(C2(C)C(=O)Nc3nc(-n4nc(Cc5cccc(F)c5F)c5ncc(F)cc54)nc(N)c32)n1)C(=O)O (single isomer, unassigned) [Compound 36-1] | N |
| CC(C)(Cc1csc([C@]2(C)C(=O)Nc3nc(-c4nn(CCC(F)(F)C(F)(F)F)c5ncccc45)nc(N)c32)n1)C(=O)O [Control compound 1, reference compound] | Y |

====

Test: Pharmacokinetic Test in Rats (Inhalation Administration)
Conditions: rat, in vivo, inhaled or intranasal, male SD rats, single dose 0.03 mg/kg, lung tissue, read-out: Lung AUC0-t

| Compound | Unit descriptor | AUC(0-t) |
| --- | --- | --- |
| CC(C)(Cc1csc([C@]2(C)C(=O)Nc3nc(-n4nc(CCC(F)(F)C(F)(F)F)c5cc(F)ccc54)nc(N)c32)n1)C(=O)O [Compound 17-1] | ng·h/mL | 2020 |
| CC(C)(Cc1csc([C@]2(C)C(=O)Nc3nc(-c4nc(CCC(F)(F)C(F)(F)F)n5ncccc45)nc(N)c32)n1)C(=O)O [Compound 3-1] | ng·h/mL | 3630 |
| CC(C)(Cc1csc(C2(C)C(=O)Nc3nc(-n4nc(CCC(F)(F)C(F)(F)F)c5ncc(F)cc54)nc(N)c32)n1)C(=O)O (single isomer, unassigned) [Compound 37-1] | ng·h/mL | 3280 |
| CC(C)(Cc1csc([C@]2(C)C(=O)Nc3nc(-c4nc(Cc5ccccc5F)n5ncccc45)nc(N)c32)n1)C(=O)O [Compound 19-1] | ng·h/mL | 12200 |
| CC(C)(Cc1csc(C2(C)C(=O)Nc3nc(-n4nc(Cc5ccccc5F)c5ncc(F)cc54)nc(N)c32)n1)C(=O)O (single isomer, unassigned) [Compound 35-1] | ng·h/mL | 5430 |
| CC(C)(Cc1cccc([C@@]2(C)C(=O)Nc3nc(-c4nn(CCC(F)(F)C(F)(F)F)c5cc(Cl)cnc45)nc(N)c32)c1)C(=O)O [Compound 6-1] | ng·h/mL | 5170 |
